Assign IC50 to each entry below.
test system: HBV; test: microbe, parasite or virus in culture; conditions: Hepatitis B virus, HepG2 2.2.15, 288 h, read-out: IC50 against Anti-HBV
Counter-ions that a name gives are not always drawn.
Give bare numbers, in nM.

Here is how some molecules turned out for IC50.
C=C1[C@H](CO)[C@@H](O)C[C@@H]1n1cnc2c(=O)[nH]c(N)nc21    0.7
CC(C)(C)C(=O)OCOP(=O)(COCCn1cnc2c(N)ncnc21)OCOC(=O)C(C)(C)C    200
Nc1ccn([C@H]2CC[C@@H](CO)O2)c(=O)n1    750
CC(C)OC(=O)OCOP(=O)(CO[C@H](C)Cn1cnc2c(N)ncnc21)OCOC(=O)OC(C)C [TDF, tenofovir disoproxil fumarate]    40
Nc1nc(=O)n([C@@H]2CS[C@H](CO)O2)cc1F    20

Look up IC50 for the entries below, preserving their order.
1. Nc1nc(NC2CC2)c2ncn([C@H]3C=C[C@@H](CO)C3)c2n1
2. C#C[C@]1(CO)O[C@@H](n2cnc3c(N)nc(F)nc32)C[C@@H]1O
3. N#C[C@]1(CO)O[C@@H](n2cnc3c(N)nc(N)nc32)C[C@@H]1O
4. Nc1ccn([C@@H]2CS[C@H](CO)O2)c(=O)n1
5. N#C[C@]1(CO)O[C@@H](n2cnc3c(=O)[nH]c(N)nc32)C[C@@H]1O

[3900, 160, 0.4, 30, 0.4]

Look up IC50 for the entries below, preserving their order.
1. OC[C@@H]1CC[C@H](n2cnc3c(O)ncnc32)O1
2. Cc1cn([C@@H]2C[C@@H](O)[C@H](CO)O2)c(=O)[nH]c1=O

3700
7

###

Assign S.I. with Anti-HBV (CC50/IC50) to each entry below.
tested on: HBV; conditions: HepG2 2.2.15 cells

CC(C)(C)C(=O)OCOP(=O)(COCCn1cnc2c(N)ncnc21)OCOC(=O)C(C)(C)C [ADV, adefovir dipivoxil]    > 500

Look up S.I. with Anti-HBV (CC50/IC50) for the entries below, preserving their order.
1. Cc1cn([C@@H]2C[C@@H](O)[C@H](CO)O2)c(=O)[nH]c1=O [LdT, telbivudine]
2. C=C1[C@H](CO)[C@@H](O)C[C@@H]1n1cnc2c(=O)[nH]c(N)nc21 [ETV, entecavir]

1. > 14,000
2. > 140,000

###

test system: HBV; conditions: HepG2 2.2.15 cells
Where a name gives a salt, the structure may show the parent alone.
Assign S.I. with Anti-HBV (CC50/IC50) to each entry below.

Here is how some molecules turned out for S.I. with Anti-HBV (CC50/IC50).
Nc1ccn([C@H]2CC[C@@H](CO)O2)c(=O)n1    > 130
CC(C)OC(=O)OCOP(=O)(CO[C@H](C)Cn1cnc2c(N)ncnc21)OCOC(=O)OC(C)C [TDF, tenofovir disoproxil fumarate]    > 2,500
Nc1nc(NC2CC2)c2ncn([C@H]3C=C[C@@H](CO)C3)c2n1    > 26
Nc1ccn([C@@H]2CS[C@H](CO)O2)c(=O)n1    > 3,300
N#C[C@]1(CO)O[C@@H](n2cnc3c(N)nc(N)nc32)C[C@@H]1O    9,500
N#C[C@]1(CO)O[C@@H](n2cnc3c(=O)[nH]c(N)nc32)C[C@@H]1O    8,000

Shift focus to the following entry.
State its S.I. with Anti-HBV (CC50/IC50) on HBV: C#C[C@]1(CO)O[C@@H](n2cnc3c(N)nc(F)nc32)C[C@@H]1O > 630

Origin of the recorded values: paper PMC4589464
